Test system: THRa:RXRa (NR concentration 90 nM, RXRa partner concentration 90 nM)
assay: PBM binding z-score (relative to random genomic background probes); higher = stronger binding; sequences stand for … in GC…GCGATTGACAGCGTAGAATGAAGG
recorded-endpoint: PBM binding z-score

Solved cases below.
>>> obs_value("TCGCGTAGGTTACGGGGGCATTCAGGGATGAAGA")
3.93
>>> obs_value("CCTGCTAGGTCATGGTCAGGTAATCTACAGTATG")
3.55
>>> obs_value("CCAAGTAGGTTACGAGGGGGCATTCAGTGCGAAT")
3.6
>>> obs_value("AGAATGAGGTTAACAAAGATCAGGGAAACGCTTG")
2.57
>>> obs_value("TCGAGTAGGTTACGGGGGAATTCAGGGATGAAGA")
1.93

// switching to the query sequence
Recorded PBM binding z-score (sequence `TCATATAGGTTAAAGGTGAAAGTCGGTGTGGTAA` ): 2.62

* * *

Recorded PBM binding z-score by entry
System: PPARg:RXRa 90nM:30nM, anti-RXR (NR concentration 90 nM, RXRa partner concentration 30 nM)
assay: PBM binding z-score (relative to random genomic background probes); higher = stronger binding; sequences stand for … in GC…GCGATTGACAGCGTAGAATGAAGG
Lab note: record the figure alone, no unit after it.

Solved cases below.
>>> obs_value("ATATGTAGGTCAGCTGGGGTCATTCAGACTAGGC")
7.16
>>> obs_value("AATACAGGGTCACTAGGCCCGAGTAGGTACGAAT")
4.04
>>> obs_value("TCGAGTAGTTTACGGGGGCATTCAGGGATGAAGA")
2.91

The value of PBM binding z-score recorded for `AATACAGGGTCATTAGGCCAGAGTAGGTACGAAT` when tested on PPARg:RXRa 90nM:30nM, anti-RXR (NR concentration 90 nM, RXRa partner concentration 30 nM) reads 4.89

* * *

Test system: RXRa DBDmut IVT, anti-RXR (DBD mutation: RXRa K156A/R161A, NR concentration 90 nM)
assay: PBM binding z-score (relative to random genomic background probes); higher = stronger binding; sequences stand for … in GC…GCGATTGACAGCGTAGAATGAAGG
Please mark MET if the recorded PBM binding z-score is equal to or greater than 2, and NOT MET if it falls below.

Given `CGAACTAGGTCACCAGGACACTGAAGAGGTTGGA` , state whether its PBM binding z-score is at least 2.
NOT MET

Given `TCGAGTAGGTTACGGGGGCATTCAAGGATGAAGA` , state whether its PBM binding z-score is at least 2.
NOT MET

Given `CCTAGTTGGGCAGGAGGTCACACACCGGATATGA` , state whether its PBM binding z-score is at least 2.
NOT MET

Given `CTATGTAGGTTAAGGGGGTCATTGAGTTTGAAAG` , state whether its PBM binding z-score is at least 2.
MET

Given `TCGAGTAGGTTACGGGGCCATTCAGGGATGAAGA` , state whether its PBM binding z-score is at least 2.
NOT MET

Given `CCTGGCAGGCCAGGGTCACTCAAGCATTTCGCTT` , state whether its PBM binding z-score is at least 2.
NOT MET

* * *

System: RXRa DBDmut IVT, anti-RXR (DBD mutation: RXRa K156A/R161A, NR concentration 90 nM)
assay: PBM binding z-score (relative to random genomic background probes); higher = stronger binding; sequences stand for … in GC…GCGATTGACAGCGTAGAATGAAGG
recorded-endpoint: PBM binding z-score
Lab note: record the figure alone, no unit after it.

Recorded PBM binding z-score (sequence `CTATGAAGGTTAAGGGGGTCATTCAGTTTGAAAG` ): 2.92

Recorded PBM binding z-score (sequence `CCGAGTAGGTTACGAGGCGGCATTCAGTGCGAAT` ): 0.159

Recorded PBM binding z-score (sequence `CGAACTAGGTCACCAAGACAGTGAAGAGGTTGGA` ): 1.29
